Data origin: patent US10683278B2

Molecular target: FLT-3 kinase domain recombinant protein (Homo sapiens, UniProt P36888)
Construct: 50 μL FLT-3 kinase domain recombinant protein diluted with reaction buffer to initiate the reaction
Sequence (P36888 610-943 limits assumed): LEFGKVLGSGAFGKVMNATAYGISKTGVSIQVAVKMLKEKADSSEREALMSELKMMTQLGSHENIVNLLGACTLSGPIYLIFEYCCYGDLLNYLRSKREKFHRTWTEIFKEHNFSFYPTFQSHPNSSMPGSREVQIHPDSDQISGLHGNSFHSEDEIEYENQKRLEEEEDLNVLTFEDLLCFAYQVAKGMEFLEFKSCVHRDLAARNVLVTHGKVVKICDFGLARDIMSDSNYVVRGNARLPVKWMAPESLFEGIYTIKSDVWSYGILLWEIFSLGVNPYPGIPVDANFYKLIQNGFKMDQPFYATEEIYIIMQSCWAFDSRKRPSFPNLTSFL
Test: Inhibition rate on FLT3 kinase (ELISA)
Assay type: biochemical
Settings: compound 10 nM; two values per compound; read-out: Inhibition rate (%) against receptor tyrosine kinase FLT-3
observed.property: inhibition at 0.01 µM (%)

Some entries whose results are on file:
1) CCc1ccc2c(c1)c(=O)c(C(=O)Nc1ccc(Oc3ncnc4[nH]cc(-c5ccc(OC)cc5)c34)c(F)c1)c(C)n2C	65.3
2) CCc1ccc2c(c1)c(=O)c(C(=O)Nc1ccc(Oc3ncnc4[nH]cc(-c5cnn(C)c5)c34)c(F)c1)c(C)n2C	58.3

A = Cc1c(C(=O)Nc2ccc(Oc3ncnc4[nH]cc(-c5ccccc5)c34)c(F)c2)c(=O)c2cc(F)ccc2n1C
B = CCc1ccc2c(c1)c(=O)c(C(=O)Nc1ccc(Oc3ncnc4cc(OCCCN5CCOCC5)c(OC)cc34)c(F)c1)c(C)n2C
Prompt line: Decide: A or B , by lowest recorded inhibition at 0.01 µM. To answer, give the label that identifies your chosen option.
Response line: A
(A: 46.1%, B: 75.4%)

---

assay: In vivo pharmacokinetic and bioavailability experiments of rats; design: species or system SD rats; conditions: Sprague-Dawley, rat, plasma; SD rats, iv, 5 mg/kg single dose
observed.property: clearance (mL/min/kg)

Some entries whose results are on file:
1) COc1cc2ncnc(Oc3ccc(NC(=O)c4cn(-c5ccc(F)cc5)c5cc(N6CCNCC6)c(F)cc5c4=O)cc3F)c2cc1OC	5.83
2) CCc1ccc2c(c1)c(=O)c(C(=O)Nc1ccc(Oc3ncnc4cc(OCCCN5CCOCC5)c(OC)cc34)c(F)c1)c(C)n2C	1.83

A = COc1cc2ncnc(Oc3ccc(NC(=O)c4cn5c6c(c(N7CCN(C)CC7)c(F)cc6c4=O)OCN5C)cc3F)c2cc1OC
B = CCc1ccc2c(c1)c(=O)c(C(=O)Nc1ccc(Oc3ncnc4cc(OC)c(OC)cc34)c(F)c1)c(C)n2C
Prompt line: Decide: A or B , by lowest recorded clearance. To answer, give the label that identifies your chosen option.
Response line: B
(B: 1.67 mL/min/kg, A: 6.5 mL/min/kg)

---

molecular target: FLT-3 kinase domain recombinant protein (Homo sapiens, UniProt P36888); construct: 50 μL FLT-3 kinase domain recombinant protein diluted with reaction buffer to initiate the reaction; experiment: Inhibition rate on FLT3 kinase (ELISA); assay type: biochemical; conditions: compound 1000 nM; two values per compound; 1 µM
observed.property: Inhibition rate (%) against receptor tyrosine kinase FLT-3

1) COc1cc2ncnc(Oc3ccc(NC(=O)c4cn(C5CC5)c5cc(N6CCNCC6)c(F)cc5c4=O)cc3F)c2cc1OC	81.2
2) CCc1ccc2c(c1)c(=O)c(C(=O)Nc1ccc(Oc3ncnc4cc(OCCCN5CCN(C)CC5)c(OC)cc34)c(F)c1)c(C)n2C	98.1
3) CCc1ccc2c(c1)c(=O)c(C(=O)Nc1ccc(Oc3ncnc4cc(OCCCN5CCOCC5)c(OC)cc34)c(F)c1)c(C)n2C	97.4
4) COc1cc2ncnc(Oc3ccc(NC(=O)c4cn(-c5ccc(F)cc5)c5cc(N6CCNCC6)c(F)cc5c4=O)cc3F)c2cc1OC	87.0
5) COc1cc2ncnc(Oc3ccc(NC(=O)c4cn5c6c(c(N7CCN(C)CC7)c(F)cc6c4=O)OCN5C)cc3F)c2cc1OC	80.9
6) CCc1ccc2c(c1)c(=O)c(C(=O)Nc1ccc(Oc3ncnc4[nH]cc(-c5ccccc5)c34)c(F)c1)c(C)n2C	80.7

---

assay: In vivo pharmacokinetic and bioavailability experiments of rats; design: species or system SD rats; settings: Sprague-Dawley, rat, plasma; SD rats, iv, 5 mg/kg single dose
observed.property: clearance (mL/min/kg)

1. CCc1ccc2c(c1)c(=O)c(C(=O)Nc1ccc(Oc3ncnc4cc(OCCN(C)C)c(OC)cc34)c(F)c1)c(C)n2C	7.5

1 = COc1cc2ncnc(Oc3ccc(NC(=O)c4cn5c6c(c(N7CCC(O)CC7)c(F)cc6c4=O)CCC5C)cc3F)c2cc1OC (stereo not shown)
2 = CCc1ccc2c(c1)c(=O)c(C(=O)Nc1ccc(Oc3ncnc4cc(OCCCN5CCN(C)CC5)c(OC)cc34)c(F)c1)c(C)n2C
3 = CCc1ccc2c(c1)c(=O)c(C(=O)Nc1ccc(Oc3ncnc4cc(OCCN5CCCC5)c(OC)cc34)c(F)c1)c(C)n2C
Prompt line: Thanks in advance: please rank these 3 entries by clearance, highest to lowest. Answer format: the labels, in the requested order.
Response line: 2, 3, 1
(2: 9.83 mL/min/kg, 3: 3 mL/min/kg, 1: 2 mL/min/kg)

---

molecular target: FLT-3 kinase domain recombinant protein (Homo sapiens); construct: 50 μL FLT-3 kinase domain recombinant protein diluted with reaction buffer to initiate the reaction; assay: Inhibition rate on FLT3 kinase (ELISA); type: biochemical; settings: compound 1000 nM; two values per compound; read-out: Inhibition rate (%) against receptor tyrosine kinase FLT-3
observed.property: inhibition at 1 µM (%)

Some entries whose results are on file:
1) CCc1ccc2c(c1)c(=O)c(C(=O)Nc1ccc(Oc3ncnc4[nH]cc(-c5ccccc5)c34)c(F)c1)c(C)n2C	86.6
2) COc1cc2ncnc(Oc3ccc(NC(=O)c4cn5c6c(cc(C)cc6c4=O)CCC5)cc3F)c2cc1OC	72
3) Cc1c(C(=O)Nc2ccc(Oc3ncnc4[nH]cc(-c5ccccc5)c34)c(F)c2)c(=O)c2cc(C(F)(F)F)ccc2n1C	84.4

P = CCc1ccc2c(c1)c(=O)c(C(=O)Nc1ccc(Oc3ncnc4[nH]cc(-c5ccccc5)c34)c(C)c1)c(C)n2C
Q = CCc1ccc2c(c1)c(=O)c(C(=O)Nc1ccc(Oc3ncnc4[nH]cc(-c5cnn(C)c5)c34)c(F)c1)c(C)n2C
Prompt line: Which of the two items, P and Q , has the greater recorded inhibition at 1 µM? To answer, give the label that identifies your chosen option.
Response line: Q

---

test system: Molm-13 cells; test: Inhibition of proliferation of Molm-13 cells (CCK-8); assay type: cell-based; conditions: Homo sapiens, 72 h, mean±standard deviation of two independent tests
observed.property: IC50 (nM)

1) CCc1ccc2c(c1)c(=O)c(C(=O)Nc1ccc(Oc3ncnc4cc(OCCCN5CCOCC5)c(OC)cc34)c(F)c1)c(C)n2C	3.5
2) CCc1ccc2c(c1)c(=O)c(C(=O)Nc1ccc(Oc3ncnc4cc(OCCN(C)C)c(OC)cc34)c(F)c1)c(C)n2C	50.2

I = CCc1ccc2c(c1)c(=O)c(C(=O)Nc1ccc(Oc3ncnc4cc(OCCCN5CCN(C)CC5)c(OC)cc34)c(F)c1)c(C)n2C
II = CCc1ccc2c(c1)c(=O)c(C(=O)Nc1ccc(Oc3ncnc4cc(OC)c(OC)cc34)c(F)c1)c(C)n2C
III = CCc1ccc2c(c1)c(=O)c(C(=O)Nc1ccc(Oc3ncnc4cc(OCCCOC)c(OC)cc34)c(F)c1)c(C)n2C
IV = COc1cc2ncnc(Oc3ccc(NC(=O)c4cn5c6c(c(N7CCC(O)CC7)c(F)cc6c4=O)CCC5C)cc3F)c2cc1OC (centres unmarked)
V = CC(C)(C)c1cc(NC(=O)Nc2ccc(-c3cn4c(n3)sc3cc(OCCN5CCOCC5)ccc34)cc2)no1 [AC220, reference compound]
Prompt line: Hey, can you sort those compounds up there by IC50, smallest first? Answer format: the labels, in the requested order.
Response line: I, V, III, II, IV

---

assay: In vivo pharmacokinetic and bioavailability experiments of rats; design: species or system SD rats; conditions: Sprague-Dawley, rat, plasma; SD rats, Po, 25 mg/kg single dose
observed.property: half-life (h)

1) CCc1ccc2c(c1)c(=O)c(C(=O)Nc1ccc(Oc3ncnc4cc(OCCCN5CCN(C)CC5)c(OC)cc34)c(F)c1)c(C)n2C	34.8

a = COc1cc2ncnc(Oc3ccc(NC(=O)c4cn5c6c(c(N7CCN(C)CC7)c(F)cc6c4=O)OCN5C)cc3F)c2cc1OC
b = COc1cc2ncnc(Oc3ccc(NC(=O)c4cn5c6c(c(N7CCC(O)CC7)c(F)cc6c4=O)CCC5C)cc3F)c2cc1OC (stereo not shown)
c = COc1cc2ncnc(Oc3ccc(NC(=O)c4cn(-c5ccc(F)cc5)c5cc(N6CCNCC6)c(F)cc5c4=O)cc3F)c2cc1OC
Prompt line: Thanks in advance: please rank these 3 entries by half-life, highest to lowest. Answer format: the labels, in the requested order.
Response line: a, c, b
